Value source: patent US20200369728A1

The following compounds are listed with their measured caspase 30 μM values.
System: Caspase 3
experiment_notes: Caspase 3 detection assay in SJSA1 cells
Format: cell-based
cond: 30 μM, SJSA1, 48 h, Caspase 3 activation over DMSO-treated cells
Bridge positions count the residues as written; N and C are the ends. Square brackets hold non-standard residues; d marks the D form. Peptide text beside a SMILES is read from it. R8 = C=CCCCCCC[C@@](C)(N)C(=O)O; S5 = C=CCCC[C@](C)(N)C(=O)O
metric_name: caspase 30 μM

* CC(=O)N[C@@H](CCC(=O)O)C(=O)N[C@H](C(=O)N[C@@H](Cc1ccccc1)C(=O)N[C@]1(C)CCCCCCC=CCCC[C@@](C)(C(=O)N[C@@H](CO)C(=O)N[C@H](C(=O)N[C@@H](C)C(N)=O)C(C)C)NC(=O)[C@H](CC(C)C)NC(=O)[C@H](CCC(N)=O)NC(=O)[C@H](C)NC(=O)[C@H](Cc2c[nH]c3ccccc23)NC(=O)[C@H](Cc2ccc(O)cc2)NC(=O)[C@H](C(C)C)NC1=O)[C@@H](C)O [compound 126] (Ac-ETF[R8]VYWAQL[S5]SVA-NH2; staple 4-11) | 30
* CC(=O)N[C@@H](CC(C)C)C(=O)N[C@H](C(=O)N[C@@H](Cc1ccccc1)C(=O)N[C@]1(C)CCCCCCC=CCCC[C@@](C)(C(=O)N[C@@H](C)C(=O)N[C@@H](C)C(=O)N[C@@H](C)C(=O)N[C@@H](C)C(=O)N[C@H](C)C(N)=O)NC(=O)[C@H](CC(C)C)NC(=O)[C@H](CCC(N)=O)NC(=O)[C@H](C)NC(=O)[C@H](Cc2c[nH]c3ccccc23)NC(=O)[C@H](Cc2ccc(O)cc2)NC(=O)[C@H](C)NC1=O)[C@@H](C)O [compound 233] | 23
* CC(=O)N[C@@H](CC(C)C)C(=O)N[C@H](C(=O)N[C@@H](Cc1ccccc1)C(=O)N[C@]1(C)CCCCCCC=CCCC[C@@](C)(C(=O)N[C@@H](CO)C(=O)N[C@H](C(=O)N[C@@H](CO)C(N)=O)C(C)C)NC(=O)[C@H](CC(C)C)NC(=O)[C@H](CCC(N)=O)NC(=O)[C@H](C)NC(=O)[C@H](Cc2c[nH]c3ccccc23)NC(=O)[C@H](Cc2ccc(O)cc2)NC(=O)[C@H](C(C)C)NC1=O)[C@@H](C)O (single isomer, unassigned) [compound 142] | 20

---

The following compounds are listed with their measured 25 μM % Lysed cells (1 h LDH) values.
Tested on: SJSA-1 cells
experiment_notes: Cell lysis by peptidomimetic macrocycles (LDH release)
Type: cell-based
cond: 25 μM, SJSA-1, 1 h
Bridge positions count the residues as written; N and C are the ends. Square brackets hold non-standard residues; d marks the D form. Peptide text beside a SMILES is read from it. R8 = C=CCCCCCC[C@@](C)(N)C(=O)O; S5 = C=CCCC[C@](C)(N)C(=O)O; Ac3c = NC1(C(=O)O)CC1
metric_name: 25 μM % Lysed cells (1 h LDH) (%)

• CC[C@H](C)[C@H](NC(=O)[C@H](C)NC(=O)[C@H](C)NC(=O)[C@]1(C)CCCC=CCCCCCC[C@@](C)(NC(=O)[C@H](Cc2ccccc2)NC(=O)[C@@H](NC(=O)[C@H](CC(C)C)NC(C)=O)[C@@H](C)O)C(=O)N[C@@H](C)C(=O)N[C@@H](Cc2c[nH]cn2)C(=O)N[C@@H](Cc2c[nH]c3ccccc23)C(=O)N[C@@H](C)C(=O)N[C@@H](CCC(N)=O)C(=O)N[C@@H](CC(C)C)C(=O)N1)C(=O)N[C@H](C)C(N)=O [compound 170] (Ac-LTF[R8]AHWAQL[S5]AAI[dA]-NH2; staple 4-11) = 1
• CC(=O)N[C@@H](CC(C)C)C(=O)N[C@H](C(=O)N[C@@H](Cc1ccccc1)C(=O)N[C@]1(C)CCCCCCC=CCCC[C@@](C)(C(=O)N[C@@H](C)C(=O)N[C@@H](C)C(=O)N[C@@H](C)C(=O)N[C@@H](C)C(=O)N[C@@H](C)C(=O)N[C@@H](C)C(=O)N[C@H](C)C(N)=O)NC(=O)[C@H](CC(C)C)NC(=O)[C@H](CCC(N)=O)NC(=O)[C@H](C)NC(=O)[C@H](Cc2c[nH]c3ccccc23)NC(=O)[C@H](Cc2ccc(O)cc2)NC(=O)[C@H](CCC(=O)O)NC1=O)[C@@H](C)O (single isomer, unassigned) [compound 343] = 0
• CC[C@H](C)[C@H](NC(=O)[C@H](C)NC(=O)[C@H](C)NC(=O)[C@]1(C)CCCC=CCCCCCC[C@@](C)(NC(=O)[C@H](Cc2ccccc2)NC(C)=O)C(=O)N[C@@H](C)C(=O)N[C@@H](Cc2ccc(O)cc2)C(=O)N[C@@H](Cc2c[nH]c3ccccc23)C(=O)N[C@@H](CCC(=O)O)C(=O)NC2(CC2)C(=O)N[C@@H](CC(C)C)C(=O)N1)C(N)=O [compound 19] (Ac-F[R8]AYWE[Ac3c]L[S5]AAI-NH2; staple 2-9) = 3
• CC[C@H](C)[C@H](NC(=O)[C@H](C)NC(=O)[C@H](CO)NC(=O)[C@]1(C)CCCC=CCCCCCC[C@@](C)(NC(=O)[C@H](Cc2ccccc2)NC(=O)[C@@H](NC(=O)[C@H](CC(C)C)NC(C)=O)[C@@H](C)O)C(=O)N[C@@H](C)C(=O)N[C@@H](Cc2ccc(O)cc2)C(=O)N[C@@H](Cc2c[nH]c3ccccc23)C(=O)N[C@@H](C)C(=O)N[C@@H](CCC(N)=O)C(=O)N[C@@H](CC(C)C)C(=O)N1)C(N)=O [compound 8] (Ac-LTF[R8]AYWAQL[S5]SAI-NH2; staple 4-11) = 1

---

System: SJSA-1 cells
experiment_notes: Cell lysis by peptidomimetic macrocycles (LDH release)
Type: cell-based
cond: 25 μM, SJSA-1, 1 h
Experimental: SJSA-1 cells were plated out one day in advance in clear flat-bottom plates (Costar, catalog number 353072) at 7500 cells/well with 100 ul/well of growth media, leaving row H columns 10-12 empty for media alone. On the day of the assay, media was exchanged with RPMI 1% FBS media, 90 uL of media per well. […] Cell plates were incubated for 1 hour at 37° C. […] LDH release is measured using the LDH cytotoxicity assay kit from Caymen, catalog #1000882.
Bridge positions count the residues as written; N and C are the ends. Square brackets hold non-standard residues; d marks the D form. Peptide text beside a SMILES is read from it. R8 = C=CCCCCCC[C@@](C)(N)C(=O)O; S5 = C=CCCC[C@](C)(N)C(=O)O; Ac3c = NC1(C(=O)O)CC1
The following molecules are listed with their measured 25 μM % Lysed cells (1 h LDH) values.
metric_name: 25 μM % Lysed cells (1 h LDH)

* CC[C@H](C)[C@H](NC(=O)[C@H](C)NC(=O)[C@H](C)NC(=O)[C@]1(C)CCCC=CCCCCCC[C@@](C)(NC(=O)[C@H](Cc2ccccc2)NC(=O)[C@@H](NC(=O)[C@H](CCC(=O)O)NC(C)=O)[C@@H](C)O)C(=O)N[C@@H](CCC(=O)O)C(=O)N[C@@H](Cc2c[nH]cn2)C(=O)N[C@@H](Cc2c[nH]c3ccccc23)C(=O)N[C@@H](C)C(=O)N[C@@H](CCC(N)=O)C(=O)N[C@@H](CC(C)C)C(=O)N1)C(=O)N[C@H](C)C(N)=O (single isomer, unassigned) [compound 174] | 2%
* CC(=O)N[C@@H](C)C(=O)N[C@@H](CC(C)C)C(=O)N[C@H](C(=O)N[C@@H](Cc1ccccc1)C(=O)N[C@]1(C)CCCCCCC=CCCC[C@@](C)(C(=O)N[C@@H](CO)C(=O)N[C@@H](C)C(=O)N[C@@H](C)C(=O)N[C@H](C)C(N)=O)NC(=O)[C@H](CC2CCC2)NC(=O)[C@H](CCC(N)=O)NC(=O)[C@H](C)NC(=O)[C@H](Cc2c[nH]c3ccccc23)NC(=O)[C@H](Cc2ccc(O)cc2)NC(=O)[C@H](CCC(=O)O)NC1=O)[C@@H](C)O (single isomer, unassigned) [compound 355] | 0%
* CC[C@H](C)[C@H](NC(=O)[C@H](C)NC(=O)[C@H](C)NC(=O)[C@]1(C)CCCC=CCCCCCC[C@@](C)(NC(=O)[C@H](Cc2ccccc2)NC(=O)[C@@H](NC(=O)[C@H](CC(C)C)NC(C)=O)[C@@H](C)O)C(=O)N[C@@H](C)C(=O)N[C@@H](Cc2ccc(O)cc2)C(=O)N[C@@H](Cc2c[nH]c3ccccc23)C(=O)N[C@@H](C)C(=O)N[C@@H](CCC(N)=O)C(=O)N[C@@H](CC(C)C)C(=O)N1)C(=O)N[C@H](CC(C)C)C(N)=O (single isomer, unassigned) [compound 82] | 0%
* CC(=O)N[C@@H](Cc1ccccc1)C(=O)N[C@]1(C)CCCCCCC=CCCC[C@@](C)(C(=O)N[C@@H](C)C(=O)N[C@@H](C)C(=O)N[C@@H](CC(C)C)C(N)=O)NC(=O)[C@H](CC(C)C)NC(=O)C2(CC2)NC(=O)[C@H](CCC(=O)O)NC(=O)[C@H](Cc2c[nH]c3ccccc23)NC(=O)[C@H](Cc2ccc(O)cc2)NC(=O)[C@H](C)NC1=O [compound 15] (Ac-F[R8]AYWE[Ac3c]L[S5]AAL-NH2; staple 2-9) | 2%
* CC(=O)N[C@@H](CC(C)C)C(=O)N[C@H](C(=O)N[C@@H](Cc1ccccc1)C(=O)N[C@]1(C)CCCCCCC=CCCC[C@@](C)(C(=O)N[C@@H](CO)C(=O)N[C@@H](C)C(=O)N[C@@H](C)C(N)=O)NC(=O)[C@H](C2CCCC2)NC(=O)[C@H](CCC(N)=O)NC(=O)[C@H](C)NC(=O)[C@H](Cc2c[nH]c3ccccc23)NC(=O)[C@H](Cc2ccc(O)cc2)NC(=O)[C@H](CCC(=O)O)NC1=O)[C@@H](C)O (single isomer, unassigned) [compound 150] | 0%
